Data credit: ChEMBL document CHEMBL1131339

System: Melanophore
test: Inhibitory concentration against melatonin-induced pigment aggregation by 50% in Xenopus laevis dermal melanophore cell line
Assay type: functional, cell-based, frog
# reported log10(IC50); entries follow
Short version: log10 scale, IC50, µM.

Past entries and their recorded results:
CC(=O)NC1CCc2[nH]c3ccccc3c2C1 (stereo unspecified) :: 1.81
CCCCC(=O)NCC1CCCCc2c1c1ccccc1n2C (stereo unspecified) :: 1.62
Cn1c2c(c3cc(OC(F)(F)F)ccc31)C(CNC(=O)C1CCC1)CCC2 (stereo unspecified) :: 1.61
CCCCC(=O)NCC1CCc2c1c1ccccc1n2C (stereo unspecified) :: 1.66

log10(IC50) reported for this molecule COc1ccc2c(c1)c1c(n2C)CCC1CNC(=O)C1CC1 (stereo unspecified) : 1.04

log10(IC50) reported for this molecule CCCCC(=O)NCC1CCCc2c1c1ccccc1n2C (stereo unspecified) : 1.23

log10(IC50) reported for this molecule CC(=O)NCCc1c(Cc2ccccc2)[nH]c2ccccc12 : 0.32

###

System: Melanophore
test: Inhibitory concentration against melatonin-induced pigment aggregation by 50% in Xenopus laevis dermal melanophore cell line
Format: functional, cell-based, frog
Consider the cut-off 30 µM. If the recorded IC50 is strictly smaller, the label is Fulfilled; if not, the label is Not fulfilled.

Example entries and their recorded answers appear below.
Cn1c2c(c3ccccc31)C(CNC(=O)C1CC1)CCC2 (configuration not stated) :: Fulfilled
Cn1c2c(c3ccccc31)C(CNC(=O)C(F)(F)F)CCC2 (configuration not stated) :: Not fulfilled
CCCC(=O)NCC1CCc2c1c1cc(OC)ccc1n2C (configuration not stated) :: Fulfilled

Prompt line: Hi there! Is IC50 for CCC(=O)NCC1CCCc2c1c1cc(CC)ccc1n2C (configuration not stated) below 30 µM, do you know?
Response line: Not fulfilled

Prompt line: Hi there! Is IC50 for CCC(Br)C(=O)NC1CCc2[nH]c3ccccc3c2C1 (configuration not stated) below 30 µM, do you know?
Response line: Not fulfilled

###

Tested on: Melanophore
test: Inhibitory concentration against melatonin-induced pigment aggregation by 50% in Xenopus laevis dermal melanophore cell line
Type: functional, cell-based, frog
# reported IC50; entries follow
Your answer is read as µM, so omit the unit and give the number.

COc1ccc2c(c1)c1c(n2C)CCCCC1CNC(C)=O (stereo not given) :: 10
O=C(CBr)NC1CCc2[nH]c3ccccc3c2C1 (stereo not given) :: 39
CC(=O)NCC1CCCc2c1c1ccccc1n2C (single isomer, unassigned; (+)) :: 6.4
CC(=O)NCC1CCCc2c1c1cc(OC(F)(F)F)ccc1n2C (stereo not given) :: 42
CCCCC(=O)NCC1CCCCc2c1c1cc(OC)ccc1n2C (stereo not given) :: 39
Cn1c2c(c3cc(Cl)ccc31)C(CNC(=O)C1CCC1)CCC2 (stereo not given) :: 14

Now consider the entry below.
IC50 reported for this molecule CC(=O)NCC1CCCCc2c1c1ccccc1n2C (stereo not given) : 54

###

Test system: Melanophore
test: Effective concentration required to produce 50% of the maximal pigment aggregation in Xenopus laevis dermal melanophore cell line
Type: functional, cell-based, frog
protocol conditions: melanophore
readout type: log10(EC50) (log10 of the value in nM)
Short version: log10 scale, EC50, nM.

Past entries and their recorded results:
COc1ccc2c(c1)c1c(n2C)CCCC1CNC(C)=O (single isomer, unassigned; (-)) :: -0.52
COc1ccc2c(c1)c1c(n2C)CCCC1CNC(C)=O (single isomer, unassigned; (+)) :: 1.17
CCC(=O)NCC1CCc2c1c1cc(OC)ccc1n2C (single isomer, unassigned; (+)) :: 2.90
CCC(=O)NCC1CCCCc2c1c1cc(OC)ccc1n2C (stereo in doubt; 11i(-)) :: 2.07

log10(EC50) reported for this compound COc1ccc2c(c1)c1c(n2C)CCCC1CNC(C)=O (stereo in doubt; 9g) : -0.15

log10(EC50) reported for this compound CC(=O)NCC1CCCc2c1c1ccccc1n2C (single isomer, unassigned; (-)) : 2.28

log10(EC50) reported for this compound CCC(=O)NCC1CCc2c1c1cc(OC)ccc1n2C (stereo in doubt; 10i) : 2.61

log10(EC50) reported for this compound CC(=O)NCC1CCCc2c1c1ccccc1n2C (stereo in doubt; 9a) : 2.78

log10(EC50) reported for this compound CCC(=O)NCC1CCc2c1c1cc(OC)ccc1n2C (single isomer, unassigned; (-)) : 0.53
